A collection of compounds and their measured collision cross section in nitrogen
Experiment: collision cross section in nitrogen (drift tube, single-field); higher = larger gas-phase ion size;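 note: chemical standards at 10 µM analysed by drift tube IMS-QTOF MS in about 3.95 torr nitrogen, mean of duplicate injections differing ≤1%, mass error below 10 ppm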
Conditions: ion type: [M+Na]; ion source: ESI; ion mode: Positive
Structures can show the parent of a compound that is named as a salt.
MEASURED ENDPOINT: collision cross section in nitrogen

>  <COMPOUND>
CN(C)C(=O)C(c1ccccc1)c1ccccc1

>  <MEASURED ENDPOINT>
collision cross section in nitrogen

>  <READING>
164.6 Å²

$$$$
>  <COMPOUND>
CC(C)OC(=O)C(C)(C)Oc1ccc(C(=O)c2ccc(Cl)cc2)cc1 [Fenofibrate]

>  <MEASURED ENDPOINT>
collision cross section in nitrogen

>  <READING>
198.4 Å²

$$$$
>  <COMPOUND>
COc1ccc2cc(S(=O)(=O)N[C@H](CC(=O)N[C@H](Cc3ccc(CN4[C@H](C)CCC[C@@H]4C)cc3)C(=O)N(C)C(C)C)c3ccc4c(c3)OCO4)ccc2c1

>  <MEASURED ENDPOINT>
collision cross section in nitrogen

>  <READING>
277.4 Å²

$$$$
>  <COMPOUND>
CC(C)(C)c1cc(CCC(=O)NN)cc(C(C)(C)C)c1O [3-[3,5-DI(tert-butyl)-4-hydroxyphenyl]propanohydrazide]

>  <MEASURED ENDPOINT>
collision cross section in nitrogen

>  <READING>
179.3 Å²

$$$$
>  <COMPOUND>
CCCCCCCCCCCCc1ccc(S(=O)(=O)O)cc1

>  <MEASURED ENDPOINT>
collision cross section in nitrogen

>  <READING>
167.4 Å²

$$$$
>  <COMPOUND>
CCCCN1C(=O)[C@@H]([C@H](O)C2CCCCC2)NC(=O)C12CCN(Cc1ccc(Oc3ccc(C(=O)O)cc3)cc1)CC2 [Aplaviroc hydrochloride]

>  <MEASURED ENDPOINT>
collision cross section in nitrogen

>  <READING>
238.6 Å²

$$$$
>  <COMPOUND>
CCCCCCCC/C=C\CCCCCCCC(=O)OCC(O)CO (stereo not drawn) [Glyceryl monooleate]

>  <MEASURED ENDPOINT>
collision cross section in nitrogen

>  <READING>
197.2 Å²

$$$$
>  <COMPOUND>
CCOP(=S)(NC(C)C)Oc1ccccc1C(=O)OC(C)C (stereo not drawn)

>  <MEASURED ENDPOINT>
collision cross section in nitrogen

>  <READING>
184.2 Å²

$$$$
>  <COMPOUND>
CCCCOCCOC(=O)COc1cc(Cl)c(Cl)cc1Cl

>  <MEASURED ENDPOINT>
collision cross section in nitrogen

>  <READING>
184.2 Å²

$$$$
>  <COMPOUND>
CC=CC(=O)N(CC)c1ccccc1C

>  <MEASURED ENDPOINT>
collision cross section in nitrogen

>  <READING>
157 Å²

$$$$
>  <COMPOUND>
CC(C)OP(=O)(CP(=O)(OC(C)C)OC(C)C)OC(C)C [Tetraisopropyl methylenediphosphonate]

>  <MEASURED ENDPOINT>
collision cross section in nitrogen

>  <READING>
185 Å²

$$$$
>  <COMPOUND>
C=CC(=O)OCCCCCCOC(=O)C=C [1,6-Hexanediol diacrylate]

>  <MEASURED ENDPOINT>
collision cross section in nitrogen

>  <READING>
157.7 Å²

$$$$
>  <COMPOUND>
CCOC(=O)C(C)OC(=O)c1cc(Oc2ccc(C(F)(F)F)cc2Cl)ccc1[N+](=O)[O-] (stereo not drawn)

>  <MEASURED ENDPOINT>
collision cross section in nitrogen

>  <READING>
212.7 Å²

$$$$
>  <COMPOUND>
O=C(NO)C1(NS(=O)(=O)c2ccc(Oc3ccc(F)cc3)cc2)CCOCC1

>  <MEASURED ENDPOINT>
collision cross section in nitrogen

>  <READING>
206.8 Å²

$$$$
>  <COMPOUND>
CNC(=O)[C@H]1O[C@@H](n2cnc3c(NCc4cc(Cl)ccc4OCc4cc(C)no4)ncnc32)[C@H](O)[C@@H]1N

>  <MEASURED ENDPOINT>
collision cross section in nitrogen

>  <READING>
223.6 Å²

$$$$
>  <COMPOUND>
CC(=O)O[C@]1(C(C)=O)CC[C@H]2[C@@H]3C[C@H](C)C4=CC(=O)CC[C@]4(C)[C@H]3CC[C@@]21C [Medroxyprogesterone acetate]

>  <MEASURED ENDPOINT>
collision cross section in nitrogen

>  <READING>
212.7 Å²

$$$$
>  <COMPOUND>
COP(=S)(OC)Oc1ccc(Sc2ccc(OP(=S)(OC)OC)cc2)cc1

>  <MEASURED ENDPOINT>
collision cross section in nitrogen

>  <READING>
196.3 Å²

$$$$
>  <COMPOUND>
CCOc1nc(F)cc2nc(S(=O)(=O)Nc3c(Cl)cccc3C(=O)OC)nn12

>  <MEASURED ENDPOINT>
collision cross section in nitrogen

>  <READING>
192 Å²

$$$$
>  <COMPOUND>
CNC[C@H](O)[C@@H](O)[C@H](O)[C@H](O)CO

>  <MEASURED ENDPOINT>
collision cross section in nitrogen

>  <READING>
147.7 Å²

$$$$
>  <COMPOUND>
CCCCOC(=O)CCCCCCCCC(=O)OCCCC [Dibutyl decanedioate]

>  <MEASURED ENDPOINT>
collision cross section in nitrogen

>  <READING>
193.5 Å²

$$$$
>  <COMPOUND>
CSC(C)=NOC(=O)N(C)SN(C)C(=O)ON=C(C)SC

>  <MEASURED ENDPOINT>
collision cross section in nitrogen

>  <READING>
190.7 Å²

$$$$
>  <COMPOUND>
CC[C@H](C)[C@@H](C(=O)O)n1sc2ccccc2c1=O

>  <MEASURED ENDPOINT>
collision cross section in nitrogen

>  <READING>
169.8 Å²

$$$$
>  <COMPOUND>
CCN(Cc1cccc(S(=O)(=O)O)c1)c1ccc(C(=C2C=CC(=[N+](CC)Cc3cccc(S(=O)(=O)O)c3)C=C2)c2ccc(O)cc2S(=O)(=O)[O-])cc1

>  <MEASURED ENDPOINT>
collision cross section in nitrogen

>  <READING>
260.8 Å²

$$$$
>  <COMPOUND>
NC(=O)CN1CCCC1=O [2-Oxo-1-Pyrrolidineacetamide]

>  <MEASURED ENDPOINT>
collision cross section in nitrogen

>  <READING>
136.8 Å²

$$$$
>  <COMPOUND>
Cc1ccc(N(C)C)cc1

>  <MEASURED ENDPOINT>
collision cross section in nitrogen

>  <READING>
128.2 Å²

$$$$
>  <COMPOUND>
CC(C)(CO)COC(=O)C(C)(C)CO

>  <MEASURED ENDPOINT>
collision cross section in nitrogen

>  <READING>
151.6 Å²

$$$$
>  <COMPOUND>
CC(C)C1(C)N=C(c2nc3ccccc3cc2C(=O)O)NC1=O (stereo not drawn)

>  <MEASURED ENDPOINT>
collision cross section in nitrogen

>  <READING>
188.4 Å²

$$$$
>  <COMPOUND>
c1cnc2c(c1)ccc1cccnc12 [1,10-Phenanthroline hydrochloride hydrate]

>  <MEASURED ENDPOINT>
collision cross section in nitrogen

>  <READING>
145.7 Å²

$$$$
>  <COMPOUND>
OC(Cn1cncn1)(Cn1cncn1)c1ccc(F)cc1F

>  <MEASURED ENDPOINT>
collision cross section in nitrogen

>  <READING>
172 Å²

$$$$
>  <COMPOUND>
Cc1cc2c3c(c1)C(c1ccccc1)=N[C@@H](NC(=O)c1ccncc1)C(=O)N3CC2

>  <MEASURED ENDPOINT>
collision cross section in nitrogen

>  <READING>
210.1 Å²

$$$$
>  <COMPOUND>
CCN(CC)C(=S)SSC(=S)N(CC)CC [Tetraethylthiuram disulfide]

>  <MEASURED ENDPOINT>
collision cross section in nitrogen

>  <READING>
173.2 Å²

$$$$
>  <COMPOUND>
CC(C)N(C(=O)CCl)c1ccccc1

>  <MEASURED ENDPOINT>
collision cross section in nitrogen

>  <READING>
161.5 Å²

$$$$
>  <COMPOUND>
CCOC(=O)CCCCCCCCC(=O)OCC [Diethyl decanedioate]

>  <MEASURED ENDPOINT>
collision cross section in nitrogen

>  <READING>
171.5 Å²

$$$$
